Test: recombinant UMI read abundance after kanamycin selection (control-corrected) (log10(CPM+1)); higher = more efficient recombination; extreme values may be limits of the assay; sequences stand for … in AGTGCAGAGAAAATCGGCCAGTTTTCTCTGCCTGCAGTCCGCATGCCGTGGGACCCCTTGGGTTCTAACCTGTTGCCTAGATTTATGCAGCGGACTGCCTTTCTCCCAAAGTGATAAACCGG…AGGTTGGTTTCACT; site = the 11-nt donor;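 also: IS621 bridge recombinase in Escherichia coli cells against a fixed T5 target plasmid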
recombinant UMI read abundance (log10) by entry:
recorded_endpoint: recombinant UMI read abundance (log10)

>>> value_observed("ACATCTACATGGACCGGTTTTCCCGGTAATCCGTATTTGTA (site ACATCTACTAA)")
0.0109
>>> value_observed("CTCGAAACATGGACCGGTTTTCCCGGTAATCCGTATTTGCA (site CTTGAAACTTG)")
0
>>> value_observed("CTAGTATCATGGACCGGTTTTCCCGGTAATCCGTATTTGGC (site CTAGTATCTGC)")
3.32
>>> value_observed("TCATAGGCATGGACCGGTTTTCCCGGTAATCCGTATTTGTT (site TCATAGGCTAA)")
1.27
>>> value_observed("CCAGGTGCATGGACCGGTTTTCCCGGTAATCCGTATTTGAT (site CCAGGTGCTAT)")
1.32
>>> value_observed("CAGAAGTCATGGACCGGTTTTCCCGGTAATCCGTATTTGAC (site CAGAAGTCTGT)")
1.46
>>> value_observed("CGTGTTGCATGGACCGGTTTTCCCGGTAATCCGTATTTGTC (site CGTGTTGCTGA)")
2.08
>>> value_observed("CTGCTCCCATGGACCGGTTTTCCCGGTAATCCGTATTTGCT (site CTGCTACCTAG)")
0
>>> value_observed("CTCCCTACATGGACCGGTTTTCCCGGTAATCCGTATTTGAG (site CTCCGTACTCT)")
0.0179
>>> value_observed("GTGCAGGCATGGACCGGTTTTCCCGGTAATCCGTATTTGGT (site GTGCACGCTAC)")
0.00349
>>> value_observed("AGACGAACATGGACCGGTTTTCCCGGTAATCCGTATTTGTC (site ACACGAACTGA)")
0
>>> value_observed("CGACCATCATGGACCGGTTTTCCCGGTAATCCGTATTTGCT (site CGAACATCTAG)")
1.13
>>> value_observed("GGATGGCCATGGACCGGTTTTCCCGGTAATCCGTATTTGCA (site GAATGGCCTTG)")
0
>>> value_observed("AAAGAAGCATGGACCGGTTTTCCCGGTAATCCGTATTTGGA (site AAAGAAGCTTC)")
1.94
>>> value_observed("CGATCGGCATGGACCGGTTTTCCCGGTAATCCGTATTTGTT (site CGATCGGCTAA)")
0.642
>>> value_observed("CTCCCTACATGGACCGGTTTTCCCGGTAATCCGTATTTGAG (site CTCCCTTCTCT)")
0.0166
>>> value_observed("ACTAGTCCATGGACCGGTTTTCCCGGTAATCCGTATTTGGT (site ACTAGTACTAC)")
0.0112
>>> value_observed("GAAGAATCATGGACCGGTTTTCCCGGTAATCCGTATTTGTT (site GAAGAATCTAA)")
3.34
>>> value_observed("CCCTACACATGGACCGGTTTTCCCGGTAATCCGTATTTGTA (site CCCAACACTTA)")
0.0262
>>> value_observed("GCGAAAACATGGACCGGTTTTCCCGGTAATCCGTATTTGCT (site TCGAAAACTAG)")
0
>>> value_observed("CCGTTGACATGGACCGGTTTTCCCGGTAATCCGTATTTGCT (site CCGTTCACTAG)")
0
>>> value_observed("ACTGAGACATGGACCGGTTTTCCCGGTAATCCGTATTTGGT (site ATTGAGACTAC)")
0.541
>>> value_observed("CAATTCCCATGGACCGGTTTTCCCGGTAATCCGTATTTGTT (site CAATTCCCTAT)")
1.15
>>> value_observed("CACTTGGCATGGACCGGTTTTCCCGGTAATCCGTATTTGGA (site CAGTTGGCTTC)")
0.28
>>> value_observed("CTGTCCGCATGGACCGGTTTTCCCGGTAATCCGTATTTGAT (site CTGTCCGCTAT)")
1.96
>>> value_observed("CATGGAACATGGACCGGTTTTCCCGGTAATCCGTATTTGTT (site CGTGGAACTAA)")
0.0146
>>> value_observed("CGGGAAACATGGACCGGTTTTCCCGGTAATCCGTATTTGCA (site CCGGAAACTTG)")
1.45
>>> value_observed("TACGGAGCATGGACCGGTTTTCCCGGTAATCCGTATTTGCC (site AGTCTTACTAA)")
0
>>> value_observed("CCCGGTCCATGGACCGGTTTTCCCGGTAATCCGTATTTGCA (site CCCGGCCCTTG)")
0
>>> value_observed("AGGCCGGCATGGACCGGTTTTCCCGGTAATCCGTATTTGGC (site TGGCCGGCTGC)")
0
>>> value_observed("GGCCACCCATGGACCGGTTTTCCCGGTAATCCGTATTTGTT (site GGCTACCCTAA)")
0.031
>>> value_observed("CCCTTCTCATGGACCGGTTTTCCCGGTAATCCGTATTTGAG (site CCCTTCTCTCC)")
0.00506
>>> value_observed("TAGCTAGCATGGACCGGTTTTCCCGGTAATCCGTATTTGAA (site TAGCTAGCTTG)")
0.0037
>>> value_observed("CCCCCTACATGGACCGGTTTTCCCGGTAATCCGTATTTGAG (site CCCCCTACTCT)")
0.0375
>>> value_observed("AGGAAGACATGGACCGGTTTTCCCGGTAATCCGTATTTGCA (site AGGAAGACTAG)")
0.102
>>> value_observed("GTATACCCATGGACCGGTTTTCCCGGTAATCCGTATTTGTC (site GTATACCCTGA)")
1.03

###

Test: recombinant UMI read abundance after kanamycin selection (control-corrected) (log10(CPM+1)); higher = more efficient recombination; extreme values may be limits of the assay; sequences stand for … in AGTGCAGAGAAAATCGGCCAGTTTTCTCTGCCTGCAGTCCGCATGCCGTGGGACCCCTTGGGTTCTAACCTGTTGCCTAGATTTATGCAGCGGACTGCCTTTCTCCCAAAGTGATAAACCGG…AGGTTGGTTTCACT; site = the 11-nt donor
Classify by measured recombinant UMI read abundance (log10): yes (1) if it is equal to or exceeds 0.01, no (0) if it is smaller.

>>> class_assignment("CCGTCAGCATGGACCGGTTTTCCCGGTAATCCGTATTTGTG (site CCGTTAGCTCA)")
"no (0)"
>>> class_assignment("CGGATGTCATGGACCGGTTTTCCCGGTAATCCGTATTTGTG (site CGGATGTCTCA)")
"yes (1)"
>>> class_assignment("GGCCCGTCATGGACCGGTTTTCCCGGTAATCCGTATTTGCA (site GGCCCGTCTTG)")
"yes (1)"
>>> class_assignment("GTGCAGGCATGGACCGGTTTTCCCGGTAATCCGTATTTGGT (site GTGCAGGCTAC)")
"yes (1)"
>>> class_assignment("GTGAGCGCATGGACCGGTTTTCCCGGTAATCCGTATTTGAG (site GTGAGCGCTCT)")
"yes (1)"
>>> class_assignment("GTCGACCCATGGACCGGTTTTCCCGGTAATCCGTATTTGAG (site GTCGACCCTCT)")
"yes (1)"
>>> class_assignment("TACAATACATGGACCGGTTTTCCCGGTAATCCGTATTTGCA (site TAGAATACTTG)")
"no (0)"
>>> class_assignment("CCATTTGCATGGACCGGTTTTCCCGGTAATCCGTATTTGGC (site CCATTTGCTGC)")
"no (0)"
>>> class_assignment("TCAGCGACATGGACCGGTTTTCCCGGTAATCCGTATTTGCG (site TCAGGGACTCG)")
"yes (1)"
>>> class_assignment("CCGTTTGCATGGACCGGTTTTCCCGGTAATCCGTATTTGGT (site CCGTTTGCTAC)")
"yes (1)"
>>> class_assignment("GGAACGTCATGGACCGGTTTTCCCGGTAATCCGTATTTGTT (site GGCACGTCTAA)")
"no (0)"
>>> class_assignment("TTTGAGACATGGACCGGTTTTCCCGGTAATCCGTATTTGGT (site GTTGAGACTAC)")
"yes (1)"
>>> class_assignment("AGGACTACATGGACCGGTTTTCCCGGTAATCCGTATTTGAG (site AGGACTACTAT)")
"no (0)"
>>> class_assignment("CGGACATCATGGACCGGTTTTCCCGGTAATCCGTATTTGAT (site CGGACATCTAC)")
"yes (1)"
>>> class_assignment("CGGAAGACATGGACCGGTTTTCCCGGTAATCCGTATTTGCA (site GGGAAGACTTG)")
"no (0)"
>>> class_assignment("CCCTTGTCATGGACCGGTTTTCCCGGTAATCCGTATTTGGG (site CCCTTTTCTCC)")
"yes (1)"
>>> class_assignment("AGAACTACATGGACCGGTTTTCCCGGTAATCCGTATTTGAC (site AGTACTACTGT)")
"yes (1)"

Every entry's value here was drawn from the supplement of paper PMC11208160.
